- procedure-text: yeast TOR pathway RPL19A-GFP modulators, primary screen, cell-based, S. cerevisiae, multiplex flow cytometry (AID 1862);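 note: lower values mimic rapamycin by blocking the RPL19A rise seen in DMSO cells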
- assay-context: S. cerevisiae RPL19A-GFP strain, flow cytometry fluorescence, 3 h; at 10 µM; stronger effect = lower value
Inconclusive results are not listed.
quantity-measured: percent of DMSO control GFP (%)
Give your result in % as a bare value.

CN(C)CCCN1c2ccccc2CCc2ccc(Cl)cc21 = 100

Please look at the following compound next.
QUERY: What measured percent of DMSO control GFP goes with CC(NCCC(c1ccccc1)c1ccccc1)c1ccccc1 (stereo not given) ?
RESULT: 92.6

###

Reported GFP response relative to DMSO values are given for each entry in this list.
- procedure-text: LAP4-GFP expression modulators in yeast, confirmation, cell-based, cherry picks, flow cytometry, mother/daughter gates (AID 2271);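 note: ratio of sample to DMSO plate mean so 100% equals DMSO level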
- assay-context: S. cerevisiae LAP4-GFP strain, 3 h, measured here: mother cell gate response, at 10 µM, stronger effect = higher value, 100 means same as DMSO control
Lab note: write values as number then unit, every time.

CCSc1nnc(NC(=O)c2ccccn2)s1 = 254%
COc1ccc(N2C(=O)c3cccc4cccc(c34)C2=O)nn1 = 91.1%
CCOC(=O)C1=C(C)N=C2SC(C(=O)OC)=CC(=O)N2C1c1ccc(F)cc1 (centres undefined) = 124%

Please look at the following compound next.
QUERY: What measured GFP response relative to DMSO goes with COc1ccc(N2CCN(C(=O)c3ccccc3)CC2)c([N+](=O)[O-])c1 ?
RESULT: 108%

###

- procedure-text: AGP1-GFP expression modulators, hit retest, confirmation, cell-based, flow cytometry, S. cerevisiae, cherry picks (AID 2273);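 note: median GFP channel fluorescence over the whole cell population gate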
- assay-context: S. cerevisiae AGP1-GFP strain, 3 h, at 10 µM
quantity-measured: GFP response, % of DMSO (%)
Give your result in % as a bare value.

Take a look at these entries with their results.
COC(=O)C1CCN(C(=O)COC(=O)CCc2nc3ccccc3c(=O)[nH]2)CC1 = 98
Cc1c([N+](=O)[O-])cnc(Sc2ccccc2)c1[N+](=O)[O-] = 97.6
CN(C)CCCN(C(=O)c1cccs1)c1nc(-c2ccccc2)cs1 = 100

QUERY: What measured GFP response, % of DMSO goes with COc1cccc(NC(=O)c2ccc3c(c2)CCCC3)c1 ?
RESULT: 90.6

QUERY: What measured GFP response, % of DMSO goes with CN1CCN(/N=C/c2c3ccccc3c(Cl)c3ccccc23)CC1 ?
RESULT: 99.8

QUERY: What measured GFP response, % of DMSO goes with COc1ccc(NC(=O)/C(C#N)=C/c2ncc([N+](=O)[O-])n2C)c(OC)c1 ?
RESULT: 99.5

QUERY: What measured GFP response, % of DMSO goes with COC(=O)c1cc(S(=O)(=O)Nc2nn(C)c3ccccc23)oc1C ?
RESULT: 95

QUERY: What measured GFP response, % of DMSO goes with O=C(c1ccc(Cl)c([N+](=O)[O-])c1)N1CCN(c2ccccc2)CC1 ?
RESULT: 97.8

QUERY: What measured GFP response, % of DMSO goes with CN(C)c1ccc(/C=C/c2ccc3ccccc3[n+]2C)cc1 ?
RESULT: 89.5

###

Reported GFP response relative to DMSO values are given for each entry in this list.
- procedure-text: LAP4-GFP expression modulators in yeast, confirmation, cell-based, cherry picks, flow cytometry, mother/daughter gates (AID 2271);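 note: ratio of sample to DMSO plate mean so 100% equals DMSO level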
- assay-context: S. cerevisiae LAP4-GFP strain, 3 h, at 10 µM, stronger effect = higher value, 100 means same as DMSO control
Give your result in % as a bare value.

Take a look at these entries with their results.
CCSC1=NCCN1S(=O)(=O)c1ccc(F)cc1 = 105
N#C/C(=C\c1c(N2CCCCCC2)nc2ccccn2c1=O)C(=O)NC1CCS(=O)(=O)C1 (stereo not drawn) = 105
Cc1ccc(C(=O)Oc2oc(-c3ccccc3)nc2C=Nc2ccc(N(C)C)cc2)cc1 = 94.9
Cn1cc(/C=C/c2cc[n+](C)cc2)c2cc(Cl)ccc21 = 111

QUERY: What measured GFP response relative to DMSO goes with CCOc1ccc(C(=O)/C=C/c2ccccc2C(F)(F)F)cc1 ?
RESULT: 97.9

QUERY: What measured GFP response relative to DMSO goes with O=C(Nc1nc(-c2ccccn2)cs1)c1cc2ccccc2o1 ?
RESULT: 285

QUERY: What measured GFP response relative to DMSO goes with COC(=O)c1cc(S(=O)(=O)Nc2nn(C)c3ccccc23)oc1C ?
RESULT: 96.7

QUERY: What measured GFP response relative to DMSO goes with Cc1c(Br)cc(C(=O)O)c(C)c1C ?
RESULT: 101

QUERY: What measured GFP response relative to DMSO goes with O=C1[C@@H]2C3C=CC(O3)[C@@H]2C(=O)N1c1ccccc1 ?
RESULT: 107

QUERY: What measured GFP response relative to DMSO goes with CC(=O)S[C@@H]1CC2=CC(=O)CC[C@]2(C)[C@H]2CC[C@@]3(C)[C@@H](CC[C@@]34CCC(=O)O4)[C@H]12 ?
RESULT: 97.4

QUERY: What measured GFP response relative to DMSO goes with O=C(Oc1oc(-c2ccco2)nc1C=Nc1ccc(Cl)cc1)c1ccco1 ?
RESULT: 176

QUERY: What measured GFP response relative to DMSO goes with CCCc1[nH]nc2c1C(c1cccc(OC)c1)C(C#N)=C(N)O2 (stereo not drawn) ?
RESULT: 98.2

QUERY: What measured GFP response relative to DMSO goes with CN1Cc2sc(NC(=S)NC(=O)c3ccccc3)c(C#N)c2CC1(C)C ?
RESULT: 109

Hey, just so you know, these numbers are from PubChem BioAssay.
